Test system: NRK-52E, epithelial kidney cell line
method: Cytotoxicity assay (PrestoBlue), NRK52E
experimental-setup: CC50, 72 h
measure: Cytotoxicity effect (µM) Epithelial kidney NRK52E
One number for each entry, in µM.

# molecule, target-entity, result
data = [
    ("CCNC1=C(C(=O)c2ccc(Br)cc2)C(c2ccc(Cl)cc2)N(Cc2cccc(F)c2)C1=O (stereo not shown)", "NRK-52E, epithelial kidney cell line", 73),
]

// for each molecule below, give its Cytotoxicity effect (µM) Epithelial kidney NRK52E
1. CCN1C(=O)C(O)=C(C(=O)c2ccc(Br)cc2)C1c1ccc(Cl)cc1 (stereo not shown)
2. O=C(C1=C(O)C(=O)N(CCc2cc3ccccc3[nH]2)C1c1ccc(Cl)cc1)c1ccc(Br)cc1 (stereo not shown)
3. C[C@@H]1C[C@@H]([C@H](O)CC2CC(=O)NC(=O)C2)C(=O)[C@@H](C)C1 [Cycloheximide, reference compound]

Result:
1: 84; 2: 9; 3: 0.20

// for each molecule below, give its Cytotoxicity effect (µM) Epithelial kidney NRK52E
1. O=C1NC(c2ccc(Cl)cc2)C(C(=O)c2ccc(Br)cc2)=C1O (stereo not shown)
2. O=C(C1=C(O)C(=O)N(Cc2cc3cc(Cl)ccc3[nH]2)C1c1ccc(Cl)cc1)c1ccc(Br)cc1 (stereo not shown)

Result:
[98, 53]
